Recorded measurements of EC50, one per entry
System: TGF-β1
experiment_description: EC50 of TGF-β1 siRNA candidates before and after modification, knockdown in cells
Type: cell-based, human
run_parameters: A549 cells, homo, 24h, 24well (second TGF-β1 table); read-out: EC50 (24h, nM, 24well) A549
Oligonucleotides are written 5' to 3', each unit as a sugar letter and its base; * is a phosphorothioate linkage, no mark a phosphodiester; rarer units and linkages stand in square brackets, end groups in braces. Plain capitals give the bases only. {P} = phosphorylation (indicated by P); d = 2'-deoxy (DNA); m = 2'-O-methyl; r = 2'-OH (RNA); f = 2'-fluoro
Note: unit nM is implicit; provide only the numeric part.

Would you please look over these solved cases?
substance: TF1-21-hm6#: siRNA targeting TGF-β1 mRNA; sense SEQ ID 26, antisense SEQ ID 36 (sense CGGCAGCUGUACAUUGACUTT; antisense AGUCAAUGUACAGCUGCCGTT; sugars from the 5' end r19 d2, backbone not given here)
EC50 (nM): 3
--
substance: TF1-21-hm7#: siRNA targeting TGF-β1 mRNA; sense SEQ ID 27, antisense SEQ ID 37 (sense GGCAGCUGUACAUUGACUUTT; antisense AAGUCAAUGUACAGCUGCCTT; sugars from the 5' end r19 d2, backbone not given here)
EC50 (nM): 0.1
--
substance: TF1-21-hm3#: siRNA targeting TGF-β1 mRNA; sense SEQ ID 23, antisense SEQ ID 33 (sense AACUAUUGCUUCAGCUCCATT; antisense UGGAGCUGAAGCAAUAGUUTT; sugars from the 5' end r19 d2, backbone not given here)
EC50 (nM): 1.4

Shift focus to the following entry.
# query: EC50 of entry TF1-21-hm3#mod: Modified (2′F, 2′OME, phosphorylation) siRNA targeting TGF-β1; sense SEQ ID 147, antisense SEQ ID 151 (sense mAmAmCmUmAmUfUfGfCmUmUmCmAmGmCmUmCmCmAdTdT; antisense {P}-mUfGmGmAmGmCmUmGmAmAmGmCmAfAmUmAmGmUmUdTdT)
0.04
